- System: 966289-007-R4-J1-PDC complex spheroid viability
- assay_procedure: Anticancer human tumor 966289-007-R4-J1-PDC patient-derived pancreatic adenocarcinoma cell line growth inhibition [RAS]
- condition_details: curve of first compound; second compound 0.3 µM
observable: IC50 (nM)
Reply with just the number (in nM).

The compound listed as CCC(CC)c1cc(NC2CCC(N)C2)n2nccc2n1 (configuration not stated) + CCn1c(-c2cc(N3CCN(C)CC3)cnc2C(C)OC)c2c3cc(ccc31)-c1csc(n1)CC(NC(=O)C1CC1C)C(=O)N1CCCC(N1)C(=O)OCC(C)(C)C2 has a reported IC50 of 1860

Sample O=C(c1ccc(F)c(F)c1Nc1ccc(I)cc1F)N1CC(O)([C@@H]2CCCCN2)C1 + CCn1c(-c2cccnc2C(C)OC)c2c3cc(ccc31)N1CCOC(CC(NC(=O)C(C(C)C)N(C)C(=O)C3(F)CCN(C(=O)C#CC(C)(C)N(C)C)CC3)C(=O)N3CCCC(N3)C(=O)OCC(C)(C)C2)C1 ; IC50 observed: 661

###

- Test system: 966289-007-R4-J1-PDC complex spheroid viability
- assay_procedure: Anticancer human tumor 966289-007-R4-J1-PDC cell line growth inhibition [RAS]; active means viability on the fitted dose curve at most 10% of control; inactive means the rest;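 also: spheroids exposed to agents for one week before readout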
- condition_details: second compound 0.000949 µM; first compound 1 µM
The reply should be one of these categories: active, inactive

Example entries and their recorded answers appear below.
1) CC(Nc1ccc2c(c1)OCCn1cc(N3C(=O)OCC3C(F)F)nc1-2)C(N)=O (centres undefined) + CCn1c(-c2cccnc2C(C)OC)c2c3cc(ccc31)N1CCOC(CC(NC(=O)C(C(C)C)N(C)C(=O)C3(F)CCN(C(=O)C#CC(C)(C)N(C)C)CC3)C(=O)N3CCCC(N3)C(=O)OCC(C)(C)C2)C1 : inactive
2) Nc1ccn(C2OC(CO)C(O)C2(F)F)c(=O)n1 (centres undefined) + CCn1c(-c2cc(N3CCN(C)CC3)cnc2C(C)OC)c2c3cc(ccc31)-c1csc(n1)CC(NC(=O)C1CC1C)C(=O)N1CCCC(N1)C(=O)OCC(C)(C)C2 : active
3) C=CC(=O)Nc1cc(Nc2nccc(-c3cn(C)c4ccccc34)n2)c(OC)cc1N(C)CCN(C)C + CCn1c(-c2cccnc2C(C)OC)c2c3cc(ccc31)N1CCOC(CC(NC(=O)C(C(C)C)N(C)C(=O)C3(F)CCN(C(=O)C#CC(C)(C)N(C)C)CC3)C(=O)N3CCCC(N3)C(=O)OCC(C)(C)C2)C1 : inactive

Below: the item to evaluate.
Check the results log: what was the call for C=CC(=O)N1CCN(c2nc(OCC3CCCN3C)nc3c(F)c(-c4nc(N)cc(C)c4C(F)(F)F)c(Cl)cc23)C(C)C1 (centres undefined) + CCn1c(-c2cccnc2C(C)OC)c2c3cc(ccc31)N1CCOC(CC(NC(=O)C(C(C)C)N(C)C(=O)C3(F)CCN(C(=O)C#CC(C)(C)N(C)C)CC3)C(=O)N3CCCC(N3)C(=O)OCC(C)(C)C2)C1 ?
inactive

###

- Tested on: 966289-007-R4-J1-PDC complex spheroid viability
- assay_procedure: Anticancer human tumor 966289-007-R4-J1-PDC cell line growth inhibition [RAS];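 also: spheroids exposed to agents for one week before readout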;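 as to viability, T/C: percent viability relative to DMSO vehicle control wells as 100%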
- condition_details: second compound 0.00949 µM; first compound 1 µM; stronger effect = lower value
observable: viability, T/C (%)
// return numeric value only (unit: %, not printed)

Note to self: viability, T/C recorded for CC1(O)CCCC1n1c(=O)c(C(F)F)cc2cnc(NC3CCN(S(C)(=O)=O)CC3)nc21 (configuration not stated) + CCn1c(-c2cc(N3CCN(C)CC3)cnc2C(C)OC)c2c3cc(ccc31)-c1csc(n1)CC(NC(=O)C1CC1C)C(=O)N1CCCC(N1)C(=O)OCC(C)(C)C2 was 25.9

Lab note: CCN1CCN(Cc2ccc(Nc3ncc(F)c(-c4cc(F)c5nc(C)n(C(C)C)c5c4)n3)nc2)CC1 + CCn1c(-c2cc(N3CCN(C)CC3)cnc2C(C)OC)c2c3cc(ccc31)-c1csc(n1)CC(NC(=O)C1CC1C)C(=O)N1CCCC(N1)C(=O)OCC(C)(C)C2 gave viability, T/C of 96.7
